Tested on: MvaT
Test: PBM 8-mer E-score (mean of HK and ME arrays) (E-score (dimensionless, -0.5 to 0.5)); higher = stronger relative binding preference
Over roughly 33,000 sequences, “E-score (dimensionless, -0.5 to 0.5)” has its median near -0.058; the highest 2% begin near 0.35. The sample holds the highest values, similar sequences and a random draw of the others, so the mix is not that of the screen.
Catalogue of sequences with associated PBM 8-mer E-score
# print the numeric value only

These recorded examples may help you get a feel for the data.
Biopolymer Sequence	Target Under Test	PBM 8-mer E-score
GCGAATAC	MvaT	0.0443
GACGACGA	MvaT	0.0375
TCTAGAAA	MvaT	0.0814
CTTATATC	MvaT	0.184
AATTTAAA	MvaT	0.443

Give the measured PBM 8-mer E-score for `AATTTAAC`
0.31

Give the measured PBM 8-mer E-score for `ACCTGCAC`
-0.11

Give the measured PBM 8-mer E-score for `ATCTTTAG`
0.14

Give the measured PBM 8-mer E-score for `GAGGGTGC`
-0.16

Give the measured PBM 8-mer E-score for `ATCACTCG`
0.0455

====

System: MvaT
Test: PBM 8-mer E-score (mean of HK and ME arrays) (E-score (dimensionless, -0.5 to 0.5)); higher = stronger relative binding preference
Over roughly 33,000 sequences, “E-score (dimensionless, -0.5 to 0.5)” has its median near -0.058; the highest 2% begin near 0.35. The entries come from a sample that favours the highest values as a whole.
Label yes for high-side PBM 8-mer E-score (at or above 0.03) and no for low-side PBM 8-mer E-score (below it).

Biopolymer Sequence	Class
ATGGAGAC	no
GAGACATC	no
TACGTTGA	yes

Then there is this sequence:
Check this sequence for PBM 8-mer E-score at or above 0.03: `ACTACGAG`
yes

====

Catalogue of sequences with associated PBM 8-mer E-score
System: MvaT
Experiment: PBM 8-mer E-score (mean of HK and ME arrays) (E-score (dimensionless, -0.5 to 0.5)); higher = stronger relative binding preference
Over roughly 33,000 sequences, “E-score (dimensionless, -0.5 to 0.5)” has its median near -0.058; the highest 2% begin near 0.35. The list comes from a sample in which the highest values are over-represented; it also holds close analogues and randomly drawn sequences.
# print the numeric value only

These recorded examples may help you get a feel for the data.
Biopolymer Sequence	Target Under Test	Value Observed
AATAAAAC	MvaT	0.341
CAGTTCAC	MvaT	-0.0234
CAGTTATA	MvaT	0.36
AATTATAG	MvaT	0.37
ACTTTTTG	MvaT	0.122
ATCTTGCC	MvaT	0.0286
GCATCGGA	MvaT	-0.11
GCGTTATA	MvaT	0.252

Give the measured PBM 8-mer E-score for `GAGTTATC`
0.0914

Give the measured PBM 8-mer E-score for `AAATACTA`
0.383

====

Test system: MvaT
Test: PBM 8-mer E-score (mean of HK and ME arrays) (E-score (dimensionless, -0.5 to 0.5)); higher = stronger relative binding preference
Over roughly 33,000 sequences, “E-score (dimensionless, -0.5 to 0.5)” has its median near -0.058; the highest 2% begin near 0.35. Many of the other results were omitted from the sample, so the highest values are more common in it than they were.
Label T for high-side PBM 8-mer E-score (at or above 0.2) and F for low-side PBM 8-mer E-score (below it).

Biopolymer Sequence	Class
TGAGTTAA	T

Check this sequence for PBM 8-mer E-score at or above 0.2: `GGTCCTCA`
F

Check this sequence for PBM 8-mer E-score at or above 0.2: `AAAACAAG`
F

Check this sequence for PBM 8-mer E-score at or above 0.2: `AAAGTTAT`
T

Check this sequence for PBM 8-mer E-score at or above 0.2: `CGGGCCAA`
F

Check this sequence for PBM 8-mer E-score at or above 0.2: `ATAACAAC`
T

Check this sequence for PBM 8-mer E-score at or above 0.2: `AAAAGTAA`
T

Check this sequence for PBM 8-mer E-score at or above 0.2: `ACGCAGGC`
F

Check this sequence for PBM 8-mer E-score at or above 0.2: `AAATGCCT`
F

Check this sequence for PBM 8-mer E-score at or above 0.2: `ATAGTTTC`
T

Check this sequence for PBM 8-mer E-score at or above 0.2: `AAAGTTTC`
T

Check this sequence for PBM 8-mer E-score at or above 0.2: `ATAGTTTA`
T

Check this sequence for PBM 8-mer E-score at or above 0.2: `ACCGTAGA`
F

Check this sequence for PBM 8-mer E-score at or above 0.2: `AACGAGAG`
F

Check this sequence for PBM 8-mer E-score at or above 0.2: `GACCGAAA`
F

This collection of values is drawn from the supplement of paper PMC4466236.
